Biological target: T1, MMP-26 catalytic domain, tagged with hexa-histidine (human, UniProt Q9NRE1 90-261)
T1 construct: the forward primer adds Met-Ala before it; also called MMP-26 target protein; Matrilysin-2; not shown: Also any N-terminal residues added by the forward primer (Met-Ala according to our card; the primers were not visible to me)
T1 sequence: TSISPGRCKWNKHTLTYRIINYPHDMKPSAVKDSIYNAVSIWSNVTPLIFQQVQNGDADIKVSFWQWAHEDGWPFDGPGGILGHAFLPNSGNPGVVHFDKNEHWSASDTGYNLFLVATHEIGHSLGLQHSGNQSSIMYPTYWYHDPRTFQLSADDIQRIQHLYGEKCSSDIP
Assay: bead-based ELISA, MMP-26 on nickel beads, IgG4 culture supernatant
F > B (fold over background) strictly under 3 fold over background means t; at 3 fold over background or over means f.

The following binders have reported results that may help.
binder	class label
C05 (antibody, human IgG4, V domains shown, whole human IgG4) VH: EVQLLESGGGLVQPGGSLRLSCAASGFTFSSYQMDWVRQAPGKGLEWVSRIVPSGGDTTYADSVKGRFTISRDNSKNTLYLQMNSLRAEDTAVYYCARHVYYDSSDYFPNPFDYWGQGTLVTVSS VL: QSELTQPPSVSGTPGQRVTISCSGSSSNIGSEYVYWFQQLPGTAPRLLIYRNDQRPSGVPDRFSGSKSGTSASLAISGLRSEDETDYYCTTWDDSLSGPVFGGGTKLTVLG	f
A04 (antibody, human IgG4, V domains shown, whole human IgG4) VH: EVQLLESGGGLVQPGGSLRLSCAASGFTFSEYNMAWVRQAPGKGLEWVSRIGSSGGKTKYADSVKGRFTISRDNSKNTLYLQMNSLRAEDTAVYYCARDEAPDYGDDAEAFDIWGQGTMVTVSS VL: QSALTQPPSASGTPGQRVTISCSGGYSNMGSNYAHWYQQVPGTAPKLLIYNNNQRPSGVPDRFSGSKSGTSASLAISGLRSEDEADYYCAAWDENLSGPVFGTGTKVTVLG	f
C07 (antibody, human IgG4, V domains shown, whole human IgG4) VH: EVQLLESGGGLVQPGGSLRLSCAASGFTFSYYVMMWVRQAPGKGLEWVSVIRPSGGITTYADSVKGRFTISRDNSKNTLYLQTNSLRAEDTAVYYCAKIDYGGNSFYFDYWGQGTLVTVSS VL: DIQMTQSPSSLSASVGDRVTITCRASQSISNYLNWYQQRPGKAPKLLIYAASSLERGVPSRFSGSGSGTDFTLTISSLQSEDFATYYCQQSYSPPPLTFGGGTKLEIKR	f
A12 (antibody, human IgG4, V domains shown, whole human IgG4) VH: EVQLLESGGGLVQPGGSLRLSCAASGFTFSAYWMDWVRQAPGKGLEWVSVIYPSGGSTNYADSVKGRFTISRDNSKNTLYLQMNSLRAEDTAVYYCAREGIAAAAPMDVWGKGTTVTVSS VL: DIQMTQSPGTLSLSPGERATLSCRASQSVSRSYLGWYQQKPGQAPRLLIYGASNRATGIPDRFSGSGSGTDFTLTISRLEPEDFAVYYCQQYGISPLTFGPGTKVDIKR	t

With those in mind, consider the next binder.
Say whether its F > B (fold over background) is strictly beneath 3 fold over background. Entry: C10 (antibody, human IgG4, V domains shown, whole human IgG4) VH: EVQLLESGGGLVQPGGSLRLSCAASGFTFSVYVMMWVRQAPGKGLEWVSGIVPSGGKTHYADSVKGRFTISRDNSKNTLYLQMNSLRAEDTAVYYCARPDYGGNSRPLEYWGQGTLVTVSS VL: QSELTQPASVSGSPGQSITISCTGTSSDVGSYNLVSWYQQHPGKAPKLMIYEGSKRPSGVSNRFSGSKSGNTASLTISGLQAEDEADYYCCSYAGSSTYVFGTGTKVTVLG f
